Value source: paper PMC6650976

molecular target: the molecule itself; test: cross-linking; apo-proteins: 0.02% glutaric aldehyde, 16 h, 20 °C, protein 1 mg/mL, 20 mM Tricine-KOH pH 7.4, 50 mM KCl, 1 mM DTT, 1 mM EDTA; SDS-PAGE, Coomassie, densitometry; self-association
outcome_measure: Dimer 50 kDa, % (%)

{"protein": "human recoverin mutant W156A (natural protein, UniProt P35243 1-200, looked up, myristoylated (fraction of non-myristoylated forms did not exceed 16%), recoverin, human, UniProt P35243, C-terminal 'gray' cluster mutant; Parent construct as m1; source: E. coli, expressed and purified similarly to the rWT protein (phenyl-Sepharose, Toyopearl SuperQ-650M)) MGNSKSGALSKEILEELQLNTKFSEEELCSWYQSFLKDCPTGRITQQQFQSIYAKFFPDTDPKAYAQHVFRSFDSNLDGTLDFKEYVIALHMTTAGKTNQKLEWAFSLYDVDGNGTISKNEVLEIVMAIFKMITPEDVKLLPDDENTPEKRAEKIAKYFGKNDDDKLTEKEFIEGTLANKEILRLIQFEPQKVKEKMKNA", "result": 35.4}
{"protein": "human recoverin mutant F106A (natural protein, UniProt P35243 1-200, looked up, myristoylated (fraction of non-myristoylated forms did not exceed 16%), recoverin, human, UniProt P35243, C-terminal 'black' cluster mutant; Parent construct as m1; source: E. coli, expressed and purified similarly to the rWT protein (phenyl-Sepharose, Toyopearl SuperQ-650M)) MGNSKSGALSKEILEELQLNTKFSEEELCSWYQSFLKDCPTGRITQQQFQSIYAKFFPDTDPKAYAQHVFRSFDSNLDGTLDFKEYVIALHMTTAGKTNQKLEWAASLYDVDGNGTISKNEVLEIVMAIFKMITPEDVKLLPDDENTPEKRAEKIWKYFGKNDDDKLTEKEFIEGTLANKEILRLIQFEPQKVKEKMKNA", "result": 38}
